- Experimental protocol: Cmax in Sprague-Dawley rat at 0.1 mg/kg, iv measured up to 8 hrs by LC-MS/MS analysis
- Assay type: ADME, organism-based
- Design: route intravenous, dose 0.1 mg/kg, time <=8
- Experimental conditions: in vivo
Readout type: Cmax (ng/mL)

                      structure_as_smiles  value_units  measured_number
0  O=C(O)c1ccc2nc(-c3cc(Cl)cc(Cl)c3)oc2c1        ng/mL              537

----------
- Experimental protocol: Volume of distribution at steady state in Sprague-Dawley rat at 0.1 mg/kg, iv measured up to 8 hrs by LC-MS/MS analysis
- Format: ADME, organism-based
- Experimental conditions: in vivo, read-out: Vdss
Readout type: Vd (L/kg)

>>> df
                      structure_as_smiles  measured_number
0  O=C(O)c1ccc2nc(-c3cc(Cl)cc(Cl)c3)oc2c1            0.375

----------
- Experimental protocol: Volume of distribution at steady state in Sprague-Dawley rat at 1 mg/kg, iv measured up to 8 hrs by LC-MS/MS analysis
- Type: ADME, organism-based
- Experimental conditions: in vivo, read-out: Vdss
This listing pairs compounds with measured Vd.
Readout type: Vd

In [3]: df
Out[3]:
                  structure_as_smiles  readout_type      result
0  O=C(O)c1cc(Cl)c2oc3ccccc3c(=O)c2c1            Vd  0.164 L/kg
1   Cc1cc(C(=O)O)cc2c(=O)c3ccccc3oc12            Vd  0.148 L/kg

----------
- Experimental protocol: AUC (0 to 8 hrs) in Sprague-Dawley rat at 0.1 mg/kg, iv measured up to 8 hrs by LC-MS/MS analysis
- Assay type: ADME, organism-based
- Set-up: route intravenous, dose 0.1 mg/kg, time <=8
- Experimental conditions: in vivo
Readout type: AUC(0-t) (µg·h/mL)

>>> print(df.to_string())
                      structure_as_smiles  measured_number
0  O=C(O)c1ccc2nc(-c3cc(Cl)cc(Cl)c3)oc2c1             1.71

----------
- Experimental protocol: Tmax in Sprague-Dawley rat at 1 mg/kg, po measured up to 8 hrs by LC-MS/MS analysis
- Type: ADME, organism-based
- Experimental conditions: in vivo
Readout type: Tmax (h)

>>> print(df.to_string())
                  structure_as_smiles  value_units  measured_number
0   Cc1cc(C(=O)O)cc2c(=O)c3ccccc3oc12            h             0.25
1  O=C(O)c1cc(Cl)c2oc3ccccc3c(=O)c2c1            h                2

----------
- Experimental protocol: Total clearance in Sprague-Dawley rat at 1 mg/kg, iv measured up to 8 hrs by LC-MS/MS analysis
- Format: ADME, organism-based
- Experimental conditions: in vivo
This listing pairs compounds with measured clearance.
Readout type: clearance (mL/min/kg)

>>> print(df.to_string())
                  structure_as_smiles  readout_type  measured_number
0  O=C(O)c1cc(Cl)c2oc3ccccc3c(=O)c2c1     clearance             1.27
1   Cc1cc(C(=O)O)cc2c(=O)c3ccccc3oc12     clearance             2.22

----------
- Experimental protocol: Aqueous solubility of the compound in pH 1.2 JP1 fluid measured after 4 hrs ny HPLC-UV analysis
- Format: physicochemical
Readout type: solubility at 4 h (µM)

                      structure_as_smiles  measured_number
0  O=C(O)c1ccc2nc(-c3cc(Cl)cc(Cl)c3)oc2c1            0.088
1      O=C(O)c1cc(Cl)c2oc3ccccc3c(=O)c2c1              2.9
2       Cc1cc(C(=O)O)cc2c(=O)c3ccccc3oc12                2

----------
- Experimental protocol: Metabolic stability in Sprague-Dawley rat liver microsomes assessed as residual rate at 1 uM preincubated for 5 mins followed by NADPH addition and measured after 30 mins by LC-MS/MS analysis
- Assay type: ADME, Microsome
- Experimental conditions: time 35 min, read-out: Stabilty
Readout type: remaining at 0.5 h, 1 µM (%)

>>> print(df.to_string())
                      structure_as_smiles  measured_number
0  O=C(O)c1ccc2nc(-c3cc(Cl)cc(Cl)c3)oc2c1               88
1      O=C(O)c1cc(Cl)c2oc3ccccc3c(=O)c2c1               88
2       Cc1cc(C(=O)O)cc2c(=O)c3ccccc3oc12               88

----------
- Experimental protocol: Elimination half life in Sprague-Dawley rat at 0.1 mg/kg, iv measured up to 8 hrs by LC-MS/MS analysis
- Format: ADME, organism-based
- Experimental conditions: in vivo, read-out: beta t1/2 (converted)
Readout type: half-life

>>> df
                      structure_as_smiles  readout_type  result
0  O=C(O)c1ccc2nc(-c3cc(Cl)cc(Cl)c3)oc2c1     half-life    12 h

----------
- Target or test system: Transthyretin (Homo sapiens, UniProt P02766, V50M)
- Experimental protocol: Inhibition of acid-mediated aggregation of TTR V30M mutant (unknown origin) expressed in Escherichia coli pretreated for 30 mins at pH 7 followed by protein dilution in acetate buffer and further incubated for 96 hrs at pH 4.6 by thioflavin-T fluorescence assay
This listing pairs molecules with measured IC50.
Readout type: IC50 (µM)

                         structure_as_smiles  reading_qualifier  measured_number
 0          O=C1c2ccccc2C(=O)c2c(O)ccc(O)c21                  >              100
 1            O=C(O)c1ccc2oc3ccccc3c(=O)c2c1                  =               22
 2         O=C1c2ccc(O)cc2C(=O)c2c1ccc(O)c2O                  =               12
 3  CC(C)=CCc1c(O)cc2oc3cc(O)c(O)c(CC=C(C)C)c3c(=O)c2c1O                  =               10
 4     O=C(O)c1cc(F)c2c(c1)C(=O)c1ccccc1C2=O                  =               24
 5        O=C(O)c1ccc2c(c1)C(=O)c1ccccc1C2=O                  =               28
 6        O=C(O)c1ccc2c(=O)c3cc(Cl)ccc3oc2c1                  =               10
 7  CC(=O)Oc1cccc2c1C(=O)c1ccc(C(=O)O)cc1C2=O                  =               10
 8  O=C(O)c1cc(O)c2c(c1)C(=O)c1cccc(O)c1C2=O                  =               12
 9         Cc1cc(C(=O)O)cc2c(=O)c3ccccc3oc12                  =              6.5
10     CCOc1cccc2c1C(=O)c1ccc(C(=O)O)cc1C2=O                  =               22
11       Cc1cc(O)c2c(c1)C(=O)c1cccc(O)c1C2=O                  >              100
12    O=C(O)c1cc(Cl)c2c(c1)C(=O)c1ccccc1C2=O                  =               12
13  O=C(O)c1ccc2c(c1)C(=O)c1c(Cl)c(Cl)c(Cl)c(Cl)c1C2=O                  =               21
14    O=C1c2ccc(O)c(O)c2C(=O)c2c(O)ccc(O)c21                  >              100
15            O=C1c2ccccc2C(=O)c2c1ccc(O)c2O                  >              100
16        O=C(O)c1cc(Cl)c2oc3ccccc3c(=O)c2c1                  =              6.7
17        O=C(O)c1ccc2oc3ccc(Cl)cc3c(=O)c2c1                  =               12
18    Cc1cc(O)c2c(c1)C(=O)c1cc(O)cc(O)c1C2=O                  >              100
19        O=C(O)c1ccc2oc3cccc(Cl)c3c(=O)c2c1                  =               13
20  COc1cccc2c1C(=O)c1c(O)c3c(c(O)c1C2=O)C[C@@](O)(C(C)=O)C[C@@H]3O[C@H]1C[C@H](N)[C@H](O)[C@H](C)O1                  >              100
21      O=C1c2cccc(O)c2C(=O)c2c(O)cc(CO)cc21                  >              100
22                 Cc1ccc2c(=O)c3ccccc3oc2c1                  >              100
23  CC(=O)Oc1cccc2c1C(=O)c1c(OC(C)=O)cc(C(=O)O)cc1C2=O                  =              5.4
24       O=C1c2ccccc2C(=O)c2c(O)c(O)cc(O)c21                  =               12
25        O=C(O)c1ccc2oc3c(Cl)cccc3c(=O)c2c1                  =               13
26          O=C1c2cccc(O)c2C(=O)c2c(O)cccc21                  >              100
27     O=C(O)c1ccc2c(c1)C(=O)c1cccc(O)c1C2=O                  =               50
28            O=C(O)c1ccc2c(=O)c3ccccc3oc2c1                  =               19
29        O=C(O)c1ccc2c(=O)c3c(Cl)cccc3oc2c1                  =               10
30        O=C(O)c1ccc2oc3cc(Cl)ccc3c(=O)c2c1                  >              100
31  Nc1ccc(O)c2c1C(=O)c1c(O)c(S(=O)(=O)O)cc(N)c1C2=O                  >              100
32    O=C(O)c1cc(Cl)c2oc3c(Cl)cccc3c(=O)c2c1                  =              9.1
33       Cc1cc(C(=O)O)cc2c1C(=O)c1ccccc1C2=O                  =               13
34  O=C(O)c1cc(C(=O)O)c2c(c1)C(=O)c1ccccc1C2=O                  >              100
35        O=C(O)c1ccc2c(=O)c3ccc(Cl)cc3oc2c1                  =               13
36  Nc1c(O)c(S(=O)(=O)O)c(O)c2c1C(=O)c1ccccc1C2=O                  =               11
37        O=C(O)c1ccc2c(=O)c3cccc(Cl)c3oc2c1                  =              7.7
38          O=C1c2cccc(O)c2C(=O)c2cccc(O)c21                  >              100
39                 Cc1ccc2oc3ccccc3c(=O)c2c1                  >              100
40     Cc1cc(C(=O)O)c2c(c1)C(=O)c1ccccc1C2=O                  =               45
41            Oc1ccc(O)c2c(O)c3ccccc3c(O)c12                  >              100
42   COc1cc(O)c2c(c1)C(=O)c1cc(C)cc(O)c1C2=O                  >              100
